Test: Cytotoxicity against C8166 cells after 72 hrs by MTT method
Type: cell-based
Conditions: human
readout_label: CC50 at 72 h (µg/mL)
Give bare numbers, in µg/mL.

COC(=O)C[C@H]1OC(C)(C)C2=C1C[C@]13CC[C@]4(C)C(=O)[C@@H](C)[C@@H]5[C@H]6OC(=O)[C@@H](C)[C@H]6O[C@@](O1)(C(=O)C3=CC2=O)[C@@H]54: 100

Recorded result, COC(=O)C[C@H]1OC(C)(C)[C@@H]2C[C@H]3O[C@@]12C[C@]12CC[C@]4(C)C(=O)[C@@H](C)[C@@H]5[C@H]6OC(=O)[C@@H](C)[C@H]6O[C@@](O1)(C(=O)[C@H]32)[C@@H]54 , CC50 at 72 h: 89.1

###

Tested on: Human immunodeficiency virus 1
Experiment: Antiviral activity against HIV1 3B in C8166 cells
Type: functional, organism-based
Conditions: Human immunodeficiency virus 1, 3B
readout_label: EC50

// worked examples, EC50 included
Cc1cn([C@H]2C[C@H](N=[N+]=[N-])[C@@H](CO)O2)c(=O)[nH]c1=O: 0.0043 µg/mL
COC(=O)C[C@H]1OC(C)(C)[C@@H]2C[C@H]3O[C@@]12C[C@]12CC[C@]4(C)C(=O)[C@@H](C)[C@@H]5[C@H]6OC(=O)[C@@H](C)[C@H]6O[C@@](O1)(C(=O)[C@H]32)[C@@H]54: 10 µg/mL
COC(=O)C[C@H]1OC(C)(C)C2=C1C[C@]13CC[C@]4(C)C(=O)[C@@H](C)[C@@H]5[C@H]6OC(=O)[C@@H](C)[C@H]6O[C@@](O1)(C(=O)C3=CC2=O)[C@@H]54: 16.2 µg/mL

With those in mind, consider the next compound.
Measured EC50 for this entry CCOC(=O)C[C@H]1OC(C)(C)C2=C1C[C@]13CC[C@]4(C)C(=O)[C@@H](C)[C@@H]5[C@H]6OC(=O)[C@@H](C)[C@H]6O[C@@](O1)(C(=O)C3=CC2=O)[C@@H]54 on Human immunodeficiency virus 1: 81.3 µg/mL
